System: KM12 colon
Assay: NCI-60 one-dose screen, 48 h
Conditions: 10 µM unless noted
The panel holds about 83,000 compounds, 20% with a hit somewhere; the sample as a whole holds those more often. Calls of active or inactive are those of the source. The calls were made as follows: active = growth percent below 10; inactive = the rest.
Parameter call: string, one of class 1 = active, class 0 = inactive

Past entries and their recorded results:
                                   compound         tgt  category_label
0  O=C1Nc2ccccc2/C1=C\c1nc(-c2ccccc2)n2ccccc12  KM12 colon         class 0
1  COc1ccc(-c2nc3c(c(-c4ccccc4)nn3-c3ccccc3)c(-c3ccc(N4CCN(C)CC4)cc3)c2C#N)cc1  KM12 colon         class 0

For the next question, use this compound.
Problem: Check the results log: what was the call for "CCOC(=O)c1c2c(n3ccc(C)cc13)C(=O)c1ccccc1C2=O" ?
Result: class 0
